Molecular target: T1, Dpo4 (SsoDpo4, Y-family DNA polymerase) (Sulfolobus solfataricus, UniProt Q97W02 1-352)
T1 sequence: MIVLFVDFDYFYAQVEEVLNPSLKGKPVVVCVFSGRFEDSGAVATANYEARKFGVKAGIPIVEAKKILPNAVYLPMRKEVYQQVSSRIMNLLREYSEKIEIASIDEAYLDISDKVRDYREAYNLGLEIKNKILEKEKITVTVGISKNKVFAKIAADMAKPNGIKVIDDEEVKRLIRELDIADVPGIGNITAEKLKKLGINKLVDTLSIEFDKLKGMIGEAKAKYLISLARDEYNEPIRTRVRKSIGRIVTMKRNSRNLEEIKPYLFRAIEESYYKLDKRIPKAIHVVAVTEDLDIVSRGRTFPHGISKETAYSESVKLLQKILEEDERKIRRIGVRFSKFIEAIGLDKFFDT
Test: fluorescence anisotropy
measure: Kd (nM)
One number for each entry, in nM.

Enquiry: What Kd value was documented for this binder, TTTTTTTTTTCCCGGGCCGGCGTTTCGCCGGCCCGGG (structured_DNA) [37-nt hairpin primer-template, 5'-Cy3] ?
Return: 214
